Hello, the source for this data is ChEMBL document CHEMBL1201861, in case you need it.

- System: D-566MG
- Experimental protocol: cells
- Format: functional, cell-based
- Settings: Homo sapiens
The label fulfilled is reserved for IC50 strictly under 20 nM; not fulfilled covers values equal to or above it.

Item smiles | Label class
CC[C@@]1(O)C(=O)OCc2c1cc1n(c2=O)Cc2cc3ccccc3nc2-1 | fulfilled
Cn1cc(/C=C2\C(=O)Nc3cccnc32)c2ccccc21 | not fulfilled
C[C@]12O[C@H](C[C@]1(O)CO)n1c3ccccc3c3c4c(c5c6ccccc6n2c5c31)CNC4=O | not fulfilled
CCCS(=O)(=O)Nc1ccc(F)c(C(=O)c2c[nH]c3ncc(Cl)cc23)c1F | not fulfilled
CNC(=O)c1ccccc1Sc1ccc2c(/C=C/c3ccccn3)n[nH]c2c1 | not fulfilled
COc1cc(Nc2c(C#N)cnc3cc(OCCCN4CCN(C)CC4)c(OC)cc23)c(Cl)cc1Cl | not fulfilled
Cn1c(=O)n(-c2ccc(C(C)(C)C#N)cc2)c2c3cc(-c4cnc5ccccc5c4)ccc3ncc21 | fulfilled
CC[C@]1(O)C[C@@H]2CN(CCc3c([nH]c4ccccc34)[C@@](C(=O)OC)(c3cc4c(cc3OC)N(C)[C@H]3[C@@](O)(C(=O)OC)[C@H](OC(C)=O)[C@]5(CC)C=CCN6CC[C@]43[C@@H]65)C2)C1 | fulfilled

###

Here, each record is paired with measured pIC50 data.
- System: ZR-75-30;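 also: growth inhibition of ZR-75-30 cells, measured with a cell viability readout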
- Experimental protocol: cells
- Type: functional, cell-based
- Settings: Homo sapiens
- Description: SANGER: Inhibition of human ZR-75-30 cell growth in a cell viability assay.
pIC50: −log10 of the molar value.

Item smiles | pIC50
Cn1cc(/C=C2\C(=O)Nc3cccnc32)c2ccccc21 | < 5.70
C[C@]1(c2nc3c(C(N)=O)cccc3[nH]2)CCCN1 | < 5.30

###

- Tested on: CAL-148
- Experimental protocol: cells
- Assay type: functional, cell-based
- Settings: Homo sapiens
- Description: SANGER: Inhibition of human CAL-148 cell growth in a cell viability assay.
pIC50: −log10 of the molar value.
Here, each record is paired with measured pIC50 data.
Measurement label: pIC50

Molecule | Test result
O=c1[nH]c2ccccc2n1C1CCN(Cc2ccc(-c3nc4cc5[nH]cnc5cc4nc3-c3ccccc3)cc2)CC1 | < 5.59
CC(O)(CS(=O)(=O)c1ccc(F)cc1)C(=O)Nc1ccc(C#N)c(C(F)(F)F)c1 (centres undefined) [BICALUTAMIDE] | < 5.99
Cc1ccc(NC(=O)c2cccc(C(C)(C)C#N)c2)cc1Nc1ccc2ncn(C)c(=O)c2c1 | < 5.40
Cc1[nH]c(/C=C2\C(=O)Nc3ccc(S(=O)(=O)Cc4c(Cl)cccc4Cl)cc32)c(C)c1C(=O)N1CCC[C@@H]1CN1CCCC1 | < 5.70

###

- System: CAL-33;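 also: growth inhibition of CAL-33 cells, read out with a cell viability assay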
- Experimental protocol: cells
- Type: functional, cell-based
- Settings: Homo sapiens
- Description: SANGER: Inhibition of human CAL-33 cell growth in a cell viability assay.
Here, each record is paired with measured log10(IC50) data.
Measurement label: log10(IC50) (log10 of the value in nM)

Item smiles | Test result
CC(C)=CC[C@@H](O)C1=CC(=O)c2c(O)ccc(O)c2C1=O | 3.30
Cn1c(=O)n(-c2ccc(C(C)(C)C#N)cc2)c2c3cc(-c4cnc5ccccc5c4)ccc3ncc21 | 1.93
CCNC(=O)c1noc(-c2cc(C(C)C)c(O)cc2O)c1-c1ccc(CN2CCOCC2)cc1 | 1.64
C[C@]12O[C@H](C[C@]1(O)CO)n1c3ccccc3c3c4c(c5c6ccccc6n2c5c31)CNC4=O | 2.86
CC[C@]1(O)C[C@@H]2CN(CCc3c([nH]c4ccccc34)[C@@](C(=O)OC)(c3cc4c(cc3OC)N(C)[C@H]3[C@@](O)(C(=O)OC)[C@H](OC(C)=O)[C@]5(CC)C=CCN6CC[C@]43[C@@H]65)C2)C1 | 0.79
CC[C@@]1(O)C(=O)OCc2c1cc1n(c2=O)Cc2cc3ccccc3nc2-1 | 0.78

###

- Test system: SUP-T1;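 also: growth inhibition of human SUP-T1 cells, read out as cell viability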
- Experimental protocol: cells
- Type: functional, cell-based
- Settings: Homo sapiens
- Description: SANGER: Inhibition of human SUP-T1 cell growth in a cell viability assay.
pIC50: −log10 of the molar value.

Compound | Censor symbol | pIC50
Cc1[nH]c(/C=C2\C(=O)Nc3ccc(S(=O)(=O)Cc4c(Cl)cccc4Cl)cc32)c(C)c1C(=O)N1CCC[C@@H]1CN1CCCC1 | < | 5.70
CC(C)=CC[C@@H](O)C1=CC(=O)c2c(O)ccc(O)c2C1=O | = | 5.74
Cc1ccc(NC(=O)c2cccc(C(C)(C)C#N)c2)cc1Nc1ccc2ncn(C)c(=O)c2c1 | = | 5.76
COc1cc(C)c(Sc2cnc(NC(=O)c3ccc(CNC(C)C(C)(C)C)cc3)s2)cc1C(=O)N1CCN(C(C)=O)CC1 (stereo not given) | = | 5.13
CO[C@@]12[C@H](COC(N)=O)C3=C(C(=O)C(C)=C(N)C3=O)N1C[C@@H]1N[C@@H]12 | = | 6.96

###

- Test system: BT-20;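 also: cell viability assay measuring suppression of growth in human BT-20 cells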
- Experimental protocol: cells
- Format: functional, cell-based
- Settings: Homo sapiens
- Description: SANGER: Inhibition of human BT-20 cell growth in a cell viability assay.

Molecule | IC50
CC[C@]1(O)C[C@@H]2CN(CCc3c([nH]c4ccccc34)[C@@](C(=O)OC)(c3cc4c(cc3OC)N(C)[C@H]3[C@@](O)(C(=O)OC)[C@H](OC(C)=O)[C@]5(CC)C=CCN6CC[C@]43[C@@H]65)C2)C1 [VINBLASTINE] | 37.7 nM
O=c1[nH]c2ccccc2n1C1CCN(Cc2ccc(-c3nc4cc5[nH]cnc5cc4nc3-c3ccccc3)cc2)CC1 | > 2560 nM
CCCS(=O)(=O)Nc1ccc(F)c(C(=O)c2c[nH]c3ncc(Cl)cc23)c1F [PLX-4720] | > 10000 nM

###

Here, each record is paired with measured IC50 data.
- Test system: TK-10;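 also: growth inhibition of TK-10 cells, read out in a cell viability assay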
- Experimental protocol: cells
- Format: functional, cell-based
- Settings: Homo sapiens
- Description: SANGER: Inhibition of human TK10 cell growth in a cell viability assay.
Measurement label: IC50

Molecule | Measurement label | Test result
COc1cc(Nc2c(C#N)cnc3cc(OCCCN4CCN(C)CC4)c(OC)cc23)c(Cl)cc1Cl [BOSUTINIB] | IC50 | > 2 µM
NC(=O)c1ncn([C@@H]2O[C@H](COP(=O)(O)O)[C@@H](O)[C@H]2O)c1N | IC50 | > 2000 µM
CC(O)(CS(=O)(=O)c1ccc(F)cc1)C(=O)Nc1ccc(C#N)c(C(F)(F)F)c1 (centres undefined) [BICALUTAMIDE] | IC50 | > 1.02 µM
CO[C@@]12[C@H](COC(N)=O)C3=C(C(=O)C(C)=C(N)C3=O)N1C[C@@H]1N[C@@H]12 [MITOMYCIN] | IC50 | 0.528 µM

###

Here, each record is paired with measured IC50 data.
- System: NCI-H1703;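 also: growth inhibition of NCI-H1703 cells, read out via a cell viability assay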
- Experimental protocol: cells
- Assay type: functional, cell-based
- Settings: Homo sapiens
- Description: SANGER: Inhibition of human NCI-H1703 cell growth in a cell viability assay.

Item smiles | Test target | Censor symbol | IC50 / nM
CC[C@@]1(O)C(=O)OCc2c1cc1n(c2=O)Cc2cc3ccccc3nc2-1 | NCI-H1703 | = | 6.51
C[C@]12O[C@H](C[C@]1(O)CO)n1c3ccccc3c3c4c(c5c6ccccc6n2c5c31)CNC4=O | NCI-H1703 | = | 345
CC[C@]1(O)C[C@@H]2CN(CCc3c([nH]c4ccccc34)[C@@](C(=O)OC)(c3cc4c(cc3OC)N(C)[C@H]3[C@@](O)(C(=O)OC)[C@H](OC(C)=O)[C@]5(CC)C=CCN6CC[C@]43[C@@H]65)C2)C1 | NCI-H1703 | = | 1.43
N#C/C(=C1/Nc2ccccc2S1)c1ccnc(NCCc2cccnc2)n1 | NCI-H1703 | > | 8000
CO[C@@]12[C@H](COC(N)=O)C3=C(C(=O)C(C)=C(N)C3=O)N1C[C@@H]1N[C@@H]12 | NCI-H1703 | = | 277

###

- Test system: NCI-H1694;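 also: cell viability assay measuring inhibition of growth in human NCI-H1694 cells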
- Experimental protocol: cells
- Format: functional, cell-based
- Settings: Homo sapiens
- Description: SANGER: Inhibition of human NCI-H1694 cell growth in a cell viability assay.
Here, each record is paired with measured IC50 data.

Item smiles | Censor symbol | IC50 (nM)
N#C/C(=C1/Nc2ccccc2S1)c1ccnc(NCCc2cccnc2)n1 | > | 8000
Fc1cc(-c2cc[nH]/c(=N/c3ccc(-n4cnc(N5CCOCC5)n4)cc3)n2)cc(N2CCOCC2)c1 | = | 1500
C/C(O)=C(\C#N)C(=O)Nc1cc(Br)ccc1Br | > | 16000
CO[C@@]12[C@H](COC(N)=O)C3=C(C(=O)C(C)=C(N)C3=O)N1C[C@@H]1N[C@@H]12 | = | 415
Cc1[nH]c(/C=C2\C(=O)Nc3ccc(S(=O)(=O)Cc4c(Cl)cccc4Cl)cc32)c(C)c1C(=O)N1CCC[C@@H]1CN1CCCC1 | > | 2000

###

- Tested on: IA-LM;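 also: cell viability assay measuring growth inhibition of human IA-LM cells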
- Experimental protocol: cells
- Format: functional, cell-based
- Settings: Homo sapiens
- Description: SANGER: Inhibition of human IA-LM cell growth in a cell viability assay.
Here, each record is paired with measured IC50 data.

Compound | Censor symbol | IC50 / nM
COc1cc(Nc2c(C#N)cnc3cc(OCCCN4CCN(C)CC4)c(OC)cc23)c(Cl)cc1Cl | > | 2000
Fc1cc(-c2cc[nH]/c(=N/c3ccc(-n4cnc(N5CCOCC5)n4)cc3)n2)cc(N2CCOCC2)c1 | = | 371
O=C(CCCCCCC(=O)Nc1ccccc1)NO | = | 1690
Cc1nc(Nc2ncc(C(=O)Nc3c(C)cccc3Cl)s2)cc(N2CCN(CCO)CC2)n1 | > | 1280
NC(=O)c1ncn([C@@H]2O[C@H](COP(=O)(O)O)[C@@H](O)[C@H]2O)c1N | = | 859000
C[C@]1(c2nc3c(C(N)=O)cccc3[nH]2)CCCN1 | > | 5000
CC(O)(CS(=O)(=O)c1ccc(F)cc1)C(=O)Nc1ccc(C#N)c(C(F)(F)F)c1 (configuration not stated) [BICALUTAMIDE] | > | 1020
